Assay: yeast display, Sf9 membrane polyspecificity reagent, FACS + sequencing; frameworks hold sequencing errors
Value Type: polyreactivity (PSR sort gate)

QVQLVESGGGLVQAGGSLRLSCAASGSIFAYNAMGRYRPAPGKERELGAAITSDDSTNYADSVKGRFTISRDNAKNSVYLQMNSLKPEDTAVYYCAAYYYYTYIIGYDYCGQGTQVTVSS = low polyreactivity
QVQLVESGGGLVQAGGSLRLSCAASGLIFYDNMGWYRQAPGNERELVAAITVSGGATYYADSVKGRFTISRDNAKNTVYLQMNSLKPEDTAVYYCARELLSPTYQRWYYYWGQGTQVTVSS = low polyreactivity
QVQLVESGGGLVQAGGSLRLSCAASGSTFSNNTMGWYRQAPGKERELVAAISWRGTRTYYADSVKGRFTISRDNAKNTVYLQMNSLKPEDTAVYYCNKLPTYPDYGYDSWGQGTQVTVSS = high polyreactivity
QVQRVESGGGLVQAGGSLRLSCAASGFIFYDYMGWYRQAPGKERVLVAVISYSGSSTYYADSVKGRFTISRDNAKNTVYLQMNSLKPEDNAVYYCAARKVNGWDYDYWGQGTQVTVSS = low polyreactivity
QVQHVESGGGLVQAGGSLRLSCAASGSIFRWYAMGWYRQAPGKERELVAGITSGGSTNYADSVKGRFTISRDNAKNTVYLQMNSLKPEDTAVYYCNARRWVGSRYDYWGQGTQVTVSS = high polyreactivity

* * *

Test: yeast display, Sf9 membrane polyspecificity reagent, FACS + sequencing; frameworks hold sequencing errors
Value Type: polyreactivity (PSR sort gate)

QVQLVESGGGLVQAGGSLRLSCAASGFTFLSNDMGWYRQSPGKERELVAGINFSGDGTYYADSVKGRFTISRDNAKNPVYLQMNSLKPEDSAVYYCAAGWLPKYGYWGKGTQVTVSS = low polyreactivity
QVQLVESGGGLVQAGGRLRLSSAASGIIFGNNAMGWYRQAPGKERELVAAIRYSGGRTYYADSVKGRFTISRDIAKNTVYLQMNSLKPEDTAVYYCNALRRGPDGSDYWGQGTQVTVSS = high polyreactivity
QVHLVESGGGLVQAGGSLRLSCAASGSTFDAYDMGWYRQAPGKERELVAAISSSGGSTYYADSVKGRFTISRDNAKNTVYLQMNSLKPEDTAVYYCAADWSVWDYDYWGQGTQVTVSS = low polyreactivity
QVQLVESGGGLVQAGGSLRLSCAASGRIFTSNTMGWYRQAAGKEGELVAAITSSGGSMYYADSVKGRFTISRDNAKNTVYLQMNSLKPEDTAVYYCAADTIGYHYWYDYWGQGTQVTVSS = low polyreactivity
QVQLVESGGGLVQAGGSLRLSCAASGITFGGYAMGWYRKARGKERELVAAISWRGGRTYYADSVKGRFTISRDNAKNTVYIQMNSLKPDDTAVYYCAVGGTVYSTESDYWGQGTQVTVSS = high polyreactivity
QVQLVESGGGLVQAGGSLRLSCAASGSTFGNNAMGWYRQAPGKERELVASINWNGGSTYYADSVKGRFTISRDNAKNTVYLQMNSLKPEDTAVYYCADDRVWAYWTYGYWGQGTQVTVSS = low polyreactivity
QVQLVESGGGLVQAGGSLRLSCAASGFIFSYCAKGRYRQAPGKERELVAAISRSGGRTYYADSVKGRYTISRDNAKNTVYLQMNSLKPEDTAVYYCAAPVSLRPIYDYWGQGTQVTVSS = high polyreactivity
QVQLVESGGGLVKARGSLRLSCAASGFTFGSYAMGWYRQAPGKERELVAAITRGSGGTYYADSVKGRFTISRDNAKNTVYVQMNSLKPEDTAVYNCASCSRSRGALRFAHFDYWGQGTQGTVSS = high polyreactivity
QVQLVESGGGLVQAGGSLRLICAASGRIINGYAMVWYRQAPGKERELVAANSVSGGSTYYADSVKGRFTISRDNAKNTVYLQMNSMKPEDTAVYYCNARIGSRSYAWISTRYDYWGQGNQVTVSS = high polyreactivity
QVQLVESGGGLVQAGGSLRLSCAASGSTFTGYAMGWYRQAPGNEREFVAAISRRGGSTYYADSVKGRFTISRDNAKNTVYLQMNSLKPEDTAVYYCAARGVGGTVPTRYDYWGQGTQVTVSS = high polyreactivity
QVQLVESGGGLVQAGGSLRLSCAASGSIFPVYAMGWYRQAPGKERELVAAINSSGGTTYYADSVKGRFSNSRDNAKNTVYLQMNSLKPEDTAVYYCAAEICTSSYLAKTYDYWGQGTQVTVSS = low polyreactivity

* * *

Test: yeast display, Sf9 membrane polyspecificity reagent, FACS + sequencing; frameworks hold sequencing errors
Value Type: polyreactivity (PSR sort gate)

QVQLVESGGGLVQAGGSLRISCAASGSTFTTYAMGWYRQAPGKERELVARIRSSGGITYYADSVKGRFTISRDNAKNTVYLQMNSLKPEDTAVYYCAARGQFYNTRVGYWGQGTQVTVSS = high polyreactivity
QVQLVESGGGLVQAGGSLRLSCAASASNFGYNAMGRYRQAPGKERELVAVITDSGGSTYYADSVKGRFTISRDNAKNTVYLQMNSLKPEDTAVYYCAKVYGLVVRGHVILSGFDYWGQGTQVTVSS = low polyreactivity
QVQLVESGGGLVQEGGSLRLSCAASGSIFKEYAMGWSRQAPGKERELVAAISTSGDITYYSDSVKGRFTISRDNAKNTVYLQMNSLKPEDTGVYYCAANYSLLRQYNRLDYWGQGTQLTVSS = low polyreactivity
QVQLVESGGGLVQAGGSLRLSCAASGSTFWYYAMGWYRQEPGKERELVASITYSGGSTYYADSVKGRFTISRDNAKNTVYLQMNSLKPEDTAVYYCAAQSPAYYTKSYWGQGTQVTVSS = low polyreactivity
QVQLQESGGGLVQAGGSLRLSCAAIGSISILQSMGWYRQAPGKERELVAGINWGATTYYADSVKGRLTTSRDYAKNTVYLQMNSLKPEDTAVYYCAVPTYYTYPLLYWGQGTQVTVSS = low polyreactivity
QVQLVESGGGLVQAGVSLRLSCAASGSIFFYNARGWYRQAPRKERELVAAITTRGGSTYYADSVKGRFTISRDNAQNYVYLQMNSLKPEDTAVSYCARSSRGKLDYWGQGTQVTVSS = low polyreactivity
QVQLVESGGGLVQAGGSLRLSCAASGRTFWYYAMGWYRQAPGKERELVAYADSVKGRFTISRDNAKNTVYLQMNSLIPEDTAVYYCAVGPVVWFSSSLYYTDYYYWGQGTQVTVSS = low polyreactivity
QVQLVESGGGLVQAGGSLRLSCAASGRIFSFNAMGWYRQAPGKERELVASGGSTYADSVKGRFTISRDNAKNTVYLQMNSLKPEETAVYYCAADPFYYFPSPFDYWGQGTQVTVSS = low polyreactivity
QVQLVESGGGLVQAGGSLRLSCAASGSTFWINTMGWYRQAPGKERELVAAITRSGGNTYYADSVKGRFTISRDNAKNTVYLQMNSLKPEDTAVYYCAAAYTRKYVTHGYWGQGTQVTVSS = high polyreactivity
QDQLVESGGGLVQAGGSLRLSCAASGRIFVHNAMGWYRQAPGKERELVAAIYQNGGRTYYADSVKGRFTISRDNAMNTVYLQMNSLKPEDTAVYYCAAGQARAGLIGGYWGQGTQVTVSS = high polyreactivity
QVQLVESGGGLVQAGGSLRLSCDASGSIFYGYTMGWYRQDPGKERELVAAIRKSGGSTNYADSVKGRFTISRDNAKNTVYLQMNSLKPEDTAVYYCAASYYRGRGYYWGQGTQVTVSS = high polyreactivity
QVQLVESGGGLVQAGGSLRLSCAASGFTFYLYAMGWYRQAPGKERELVAAISSGSTTYYADSVKGRFTISRDNAKNTVYLQMNSLKPEDTAVYYCNAYYVNYVSNYEYWGQGTQVTVSS = high polyreactivity
QVQLVESGVGLVQAGGSLRLSCAAYGRTFYYYAMGWYRQAPGKERELVAGITWSGGSTKYADSVKGRFTISRDNAKNTVYLQMNSLKPEDTAVYYCNARPPRWVRSMDYWGQGTQVTVSS = high polyreactivity
QVQLVESGGGLVQAGGSLRLSCAASGRIFWYNTMGWYRQAPGKERELVATITTGGRTNYADSVKGRFTISRDNAKNTVYLQMNSLKPEDTAVYYCNAVRGLWVTWRYYYWGQGTQVTVSS = high polyreactivity
QVQLVESGGGLVQAGGSLRLSCAASGLIFYRNAMGWYRQAPGKERELVAAIRFSTGSTYYADSVKGRFTISRDNAKNTVYLQMNSLKPEDTAVYYCAADRRYYWYNYWGQGTQVNVSS = high polyreactivity
QVQLVESGGGLVQAGGSLRLICAASGSTFSSNAMAWFRQAPGKERELVAAIDRGGSTNYADSVKGRFTISRDNAKNTVYFQMNCLKAEDTAVYYCKAERVTYDTGRAVLPGGYWGQGTQVTVSS = low polyreactivity
QVQLVESGGGLVQAGGSLRLSCAASGSILDLNAMGWYRQAPGKERELVAAISYSGDSTYYADSVKGRFTISRDNAKNTVYLQMNSLKPEDTAVYYCAAEVYGAVFDYWGQGTQVTVSS = low polyreactivity
QVQLVESGGGLVQAGGSLRLSCAASGRTFGPYALGWYRQAPGKERELVATSSSNGASTYYADSVKGRFTISRDNAKNTVYLQMNSLKPEDTAVYYCAAEFHFWGYLYDYWGQGTQVTVSS = low polyreactivity
QVQLVESGGGLVQAGGSLRLSCAACGSIFEAYAMGWYRKAPGKERELVAVINYSGGSTYYADSVKGRFTISRDNAKNTVYLQMNSLKPEDTAVYYCAADTVRPWYAYKAHDYWGLGTQVTVSS = low polyreactivity
QVQLVESGGGLVQAGGSLRLSCAASGRTFYTNAMGWSRQAPGKERELVAAISRGGGRTYYADSVKGRFTISRDNAKNTVYLQMNSLKPEDTAVYYCAASPYQGQGREYYYWGQGTQVTVSS = high polyreactivity
QVQLGESGGGLVQAGGSLSLSCAASGITLHNYAMGWYRQAPGKERELVAAISRRGGNTYYADSVKGRFTISRDNAKNTVYLQMNSLIPEDTAVSYCAAYYHGRMDYWGQGTQVTVSS = high polyreactivity
